# Procedure Details: Pharmacokinetics after repeated oral administration of 250 μg/kg and 35 μg/kg of fluralaner in dogs after feeding
# Type: in vivo, beagle dogs
# Condition Summary: beagle, dog, plasma, po, 240 h; oral 250/35/600 μg/kg regimen, dogs, n=6; read-out: fluralaner concentration levels, Maximum
Result Type: concentration at 240 h (ng/mL)
Answers are plain numbers, in ng/mL.

Reported concentration at 240 h for Cc1cc(C2=NOC(c3cc(Cl)cc(Cl)c3)(C(F)(F)F)C2)ccc1C(=O)NCC(=O)NCC(F)(F)F (stereo not shown) : what is it?
724

---

# Procedure Details: Pharmacokinetics after repeated oral administration of 35 μg/kg of fluralaner in dogs after feeding
# Format: in vivo, beagle dogs
# Condition Summary: beagle, dog, plasma, po, 35 ug/kg, oral 35 μg/kg Days 0-3, dogs; read-out: maximum concentration (Cmax), range
# Experimental: The first objective of the study was to obtain the pharmacokinetic parameters after repeated oral administration of 35 μg/kg of fluralaner in dogs, 30 to 35 minutes after feeding. […] On Days 0, 1, 2 and 3, all dogs assigned to group 2 received the Investigational Veterinary Product. […] The quantity of Investigational Veterinary Product and control product administered was calculated according to the dog's individual body weight measured on Day −1. […]
Result Type: Cmax

Look up Cmax: Cc1cc(C2=NOC(c3cc(Cl)cc(Cl)c3)(C(F)(F)F)C2)ccc1C(=O)NCC(=O)NCC(F)(F)F (stereo not shown)
71.8 to 92.4 ng/mL

---

# Procedure Details: Pharmacokinetics after repeated oral administration of 250 μg/kg and 35 μg/kg of fluralaner in dogs after feeding
# Type: in vivo, beagle dogs
# Condition Summary: beagle, dog, plasma, po, oral 250/35/600 μg/kg regimen, dogs; read-out: Cmax, range
Result Type: Cmax

If you can, please state the reported Cmax value of Cc1cc(C2=NOC(c3cc(Cl)cc(Cl)c3)(C(F)(F)F)C2)ccc1C(=O)NCC(=O)NCC(F)(F)F (stereo not shown) .
561 to 1000 ng/mL

---

# Procedure Details: Pharmacokinetics after repeated oral administration of 250 μg/kg and 35 μg/kg of fluralaner in dogs after feeding
# Assay type: in vivo, beagle dogs
# Condition Summary: beagle, dog, plasma, po, 168 h; oral 250 μg/kg Days 0-3, 35 μg/kg Days 4-9, 600 μg/kg Day 11, dogs; read-out: fluralaner concentration levels, individual animal
# Procedure: The first objective is to obtain the pharmacokinetic parameters after repeated oral administration of […] and 35 μg/kg of fluralaner in dogs after feeding. […] On Days 0, 1, 2 and 3, all dogs assigned to group 2 received the Investigational Veterinary Product. […] The quantity of Investigational Veterinary Product and control product administered was calculated according to the dog's individual body weight measured on Day −1. […] Cmax the observed maximum concentration in plasma measured after dosing. […]
Result Type: concentration at 168 h (ng/mL)
Answers are plain numbers, in ng/mL.

Give the measured concentration at 168 h of Cc1cc(C2=NOC(c3cc(Cl)cc(Cl)c3)(C(F)(F)F)C2)ccc1C(=O)NCC(=O)NCC(F)(F)F (stereo not shown) [fluralaner, Fluralaner] .
491

---

# Procedure Details: Pharmacokinetics after repeated oral administration of 250 μg/kg and 35 μg/kg of fluralaner in dogs after feeding
# Type: in vivo, beagle dogs
# Condition Summary: beagle, dog, plasma, po, 240 h; oral 250/35/600 μg/kg regimen, dogs, n=6; read-out: fluralaner concentration levels, Mean
# Experimental: The first objective is to obtain the pharmacokinetic parameters after repeated oral administration of […] and 35 μg/kg of fluralaner in dogs after feeding. […] On Days 0, 1, 2 and 3, all dogs assigned to group 2 received the Investigational Veterinary Product. […] The quantity of Investigational Veterinary Product and control product administered was calculated according to the dog's individual body weight measured on Day −1. […] Cmax the observed maximum concentration in plasma measured after dosing. […]
Result Type: concentration at 240 h (ng/mL)
Numbers only, in ng/mL.

Fill blank: measured concentration at 240 h of the compound Cc1cc(C2=NOC(c3cc(Cl)cc(Cl)c3)(C(F)(F)F)C2)ccc1C(=O)NCC(=O)NCC(F)(F)F (stereo not shown) [fluralaner, Fluralaner] is ____.
483

---

# Procedure Details: Pharmacokinetics after repeated oral administration of 250 μg/kg and 35 μg/kg of fluralaner in dogs after feeding
# Type: in vivo, beagle dogs
# Condition Summary: beagle, dog, plasma, po, 720 h; oral 250 μg/kg Days 0-3, 35 μg/kg Days 4-9, 600 μg/kg Day 11, dogs; read-out: fluralaner concentration levels, individual animal
Result Type: concentration at 720 h (ng/mL)
One number for each entry, in ng/mL.

Which concentration at 720 h is reported for this molecule? Cc1cc(C2=NOC(c3cc(Cl)cc(Cl)c3)(C(F)(F)F)C2)ccc1C(=O)NCC(=O)NCC(F)(F)F (stereo not shown) [fluralaner, Fluralaner]
300

---

# Procedure Details: Pharmacokinetics after repeated oral administration of 250 μg/kg and 35 μg/kg of fluralaner in dogs after feeding
# Assay type: in vivo, beagle dogs
# Condition Summary: beagle, dog, plasma, po, 168 h; oral 250/35/600 μg/kg regimen, dogs, n=6; read-out: fluralaner concentration levels, Mean
Result Type: concentration at 168 h (ng/mL)
One number for each entry, in ng/mL.

# lookup: concentration at 168 h of Cc1cc(C2=NOC(c3cc(Cl)cc(Cl)c3)(C(F)(F)F)C2)ccc1C(=O)NCC(=O)NCC(F)(F)F (stereo not shown)
518

---

# Procedure Details: Pharmacokinetics after repeated oral administration of 250 μg/kg and 35 μg/kg of fluralaner in dogs after feeding
# Format: in vivo, beagle dogs
# Condition Summary: beagle, dog, plasma, po, oral 250/35/600 μg/kg regimen, dogs; read-out: terminal half-life, range
Result Type: half-life

What does the data say about its half-life? Entry: Cc1cc(C2=NOC(c3cc(Cl)cc(Cl)c3)(C(F)(F)F)C2)ccc1C(=O)NCC(=O)NCC(F)(F)F (stereo not shown) [fluralaner, Fluralaner]
9.47 to 20.6 days

---

# Procedure Details: Pharmacokinetics after repeated oral administration of 250 μg/kg and 35 μg/kg of fluralaner in dogs after feeding
# Format: in vivo, beagle dogs
# Condition Summary: beagle, dog, plasma, po, 24 h; oral 250/35/600 μg/kg regimen, dogs, n=6; read-out: fluralaner concentration levels, Minimum
Result Type: concentration at 24 h (ng/mL)
Give bare numbers, in ng/mL.

Any idea what concentration at 24 h was measured for Cc1cc(C2=NOC(c3cc(Cl)cc(Cl)c3)(C(F)(F)F)C2)ccc1C(=O)NCC(=O)NCC(F)(F)F (stereo not shown) ?
129

---

# Procedure Details: Pharmacokinetics after repeated oral administration of 250 μg/kg and 35 μg/kg of fluralaner in dogs after feeding
# Format: in vivo, beagle dogs
# Condition Summary: beagle, dog, plasma, po, 216 h; oral 250/35/600 μg/kg regimen, dogs, n=6; read-out: fluralaner concentration levels, Maximum
Result Type: concentration at 216 h (ng/mL)
Numbers only, in ng/mL.

Any idea what concentration at 216 h was measured for Cc1cc(C2=NOC(c3cc(Cl)cc(Cl)c3)(C(F)(F)F)C2)ccc1C(=O)NCC(=O)NCC(F)(F)F (stereo not shown) ?
650

---

# Procedure Details: Pharmacokinetics after repeated oral administration of 35 μg/kg of fluralaner in dogs after feeding
# Assay type: in vivo, beagle dogs
# Condition Summary: beagle, dog, plasma, po, 35 μg/kg, 360 h; oral 35 μg/kg Days 0-3, dogs, n=6; read-out: fluralaner concentration levels, Maximum
Result Type: concentration at 360 h (ng/mL)
Answers are plain numbers, in ng/mL.

Which concentration at 360 h value belongs to Cc1cc(C2=NOC(c3cc(Cl)cc(Cl)c3)(C(F)(F)F)C2)ccc1C(=O)NCC(=O)NCC(F)(F)F (stereo not shown) ?
43.5

---

# Procedure Details: Pharmacokinetics after repeated oral administration of 250 μg/kg and 35 μg/kg of fluralaner in dogs after feeding
# Format: in vivo, beagle dogs
# Condition Summary: beagle, dog, plasma, po, 120 h; oral 250/35/600 μg/kg regimen, dogs, n=6; read-out: fluralaner concentration levels, GeoMean
Result Type: concentration at 120 h (ng/mL)
Give bare numbers, in ng/mL.

Using the record for Cc1cc(C2=NOC(c3cc(Cl)cc(Cl)c3)(C(F)(F)F)C2)ccc1C(=O)NCC(=O)NCC(F)(F)F (stereo not shown) , report its concentration at 120 h.
508

---

# Procedure Details: Pharmacokinetics after repeated oral administration of 250 μg/kg and 35 μg/kg of fluralaner in dogs after feeding
# Assay type: in vivo, beagle dogs
# Condition Summary: beagle, dog, plasma, po, 24 h; oral 250 μg/kg Days 0-3, 35 μg/kg Days 4-9, 600 μg/kg Day 11, dogs; read-out: fluralaner concentration levels, individual animal
Result Type: concentration at 24 h

GET /values?readout=concentration at 24 h&item= Cc1cc(C2=NOC(c3cc(Cl)cc(Cl)c3)(C(F)(F)F)C2)ccc1C(=O)NCC(=O)NCC(F)(F)F (stereo not shown)
160 ng/mL
